These measurements were taken from paper PMC7503831.

target_under_test: human DOR (Homo sapiens, UniProt P41143)
Construct: expressed in transfected cells; host or cells: CHO cells (membrane preparation)
Sequence (P41143 whole entry): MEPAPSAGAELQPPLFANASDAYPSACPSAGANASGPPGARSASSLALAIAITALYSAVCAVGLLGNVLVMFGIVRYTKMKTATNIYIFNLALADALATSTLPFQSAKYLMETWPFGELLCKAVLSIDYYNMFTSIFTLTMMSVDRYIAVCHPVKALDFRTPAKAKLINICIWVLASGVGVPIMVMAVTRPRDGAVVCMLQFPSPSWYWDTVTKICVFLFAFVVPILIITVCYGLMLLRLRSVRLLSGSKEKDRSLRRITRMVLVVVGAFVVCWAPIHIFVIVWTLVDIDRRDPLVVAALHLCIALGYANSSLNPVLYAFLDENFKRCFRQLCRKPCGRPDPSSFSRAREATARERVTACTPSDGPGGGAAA
assay_comment: [35S]GTPγS binding assay, functional activity for the DOR
Type: biochemical
measurement_context: read-out: Functional Activity for DOR, Emax (95% CI)
Protocol: The human MOR, DOR, or KOR recombinant CHO cell pellets were resuspended in 50 mM Tris–HCl buffer containing 5 mM MgCl2, 1 mM ethylene glycol bis(2-aminoethyl ether)-N,N,N,N-tetraacetic acid (EGTA), pH 7.4. The cell suspensions were disrupted by use of a glassteflon homogeniser and centrifuged at 48,000× g for 15 min. The supernatant was discarded and the pellets were resuspended in buffer at a concentration of 5 mg protein/mL and stored at −80 °C until further use. […]
measurement_kind: Emax (%)

[[record]]
molecule = "O=S(=O)(C1CC1)N1CCC23c4c5ccc(O)c4OC2c2[nH]c4ccccc4c2CC3(O)C1C5 (stereo not drawn) [9f]"
measurement_kind = "Emax"
numeric_result = -80.5

[[record]]
molecule = "O=S(=O)(Cc1ccccc1)N1CCC23c4c5ccc(O)c4OC2c2[nH]c4ccccc4c2CC3(O)C1C5 (stereo not drawn) [9d]"
measurement_kind = "Emax"
numeric_result = 47.1

[[record]]
molecule = "CS(=O)(=O)N1CCC23c4c5ccc(O)c4OC2c2[nH]c4ccccc4c2CC3(O)C1C5 (stereo not drawn) [9a]"
measurement_kind = "Emax"
numeric_result = -48.8

[[record]]
molecule = "C=CS(=O)(=O)N1CCC23c4c5ccc(O)c4OC2c2[nH]c4ccccc4c2CC3(O)C1C5 (stereo not drawn) [9g]"
measurement_kind = "Emax"
numeric_result = -80.2

[[record]]
molecule = "Oc1ccc2c3c1O[C@H]1c4[nH]c5ccccc5c4C[C@@]4(O)[C@@H](C2)N(CCCc2ccccc2)CC[C@]314 [SYK-903]"
measurement_kind = "Emax"
numeric_result = 105

[[record]]
molecule = "O=S(=O)(CCc1ccccc1)N1CCC23c4c5ccc(O)c4OC2c2[nH]c4ccccc4c2CC3(O)C1C5 (stereo not drawn) [9e]"
measurement_kind = "Emax"
numeric_result = 88.1

